pIC50: −log10 of the molar value.
Study the reported pIC50 values for Oxysterols receptor LXR-alpha (Homo sapiens, UniProt Q13133) given below; they originate from different publications.
MEASURED PROPERTY: pIC50

Example entries begin here.
- Cc1nc2cccc(C(F)(F)F)c2nc1-c1cc(Oc2cc(F)cc(S(C)(=O)=O)c2)ccc1Cl: 6.20
- CC(C)CN(Cc1ccc(-c2cccc(S(C)(=O)=O)c2)cc1F)S(=O)(=O)c1ccccc1Cl: 8.09
- O=C(O)Cc1cccc2c(NCc3cccc(-c4ccnc5c(C(F)(F)F)cccc45)c3)cccc12: 6.13
- CS(=O)(=O)c1cccc(-c2ccc(CN(Cc3ccccc3F)S(=O)(=O)c3ccccc3C(F)(F)F)s2)c1: 7.87
- CC(C)c1nc2c(C#N)cccn2c1-c1cccc(OCc2cccc(S(C)(=O)=O)c2)c1: 4.55
- Cc1cc(Oc2cccc(S(C)(=O)=O)c2)ccc1-n1cnc2c(C(F)(F)F)cccc21: 5.19
- CC(C)CN(Cc1cc(-c2cccc(S(C)(=O)=O)c2)cs1)S(=O)(=O)c1ccccc1Cl: 7.17
- Cc1nc(-c2cc(Oc3cccc(S(=O)(=O)CCCNS(C)(=O)=O)c3)ccc2Cl)c2cccc(C(F)(F)F)c2n1: 5.15
- CS(=O)(=O)c1cc(Oc2ccc(Cl)c(-c3ncnc4c(Cl)cccc34)c2)ccc1C(N)=O: 5.42
- O=C(O)CC1=CCCc2c(OCc3cccc(-c4c(Cc5ccccc5)cnc5c(C(F)(F)F)cccc45)c3)cccc21: 6.88

a = COc1ccc(C(=O)O)cc1OCc1cccc(-c2c(Cc3ccccc3)cnc3c(C(F)(F)F)cccc23)c1
b = CC(C)S(=O)(=O)N(Cc1cccc(-c2cccc(S(C)(=O)=O)c2)c1)CC1CCC1
Name the one with the greater pIC50 value, either a or b as given. // respond with label for picked entry
b
(b: 5.79, a: 5.28)

* * *

pIC50: −log10 of the molar value.
Field pIC50: reported value for UniProtKB Q13133; entries drawn from several documents.
MEASURED PROPERTY: pIC50

Check out these entries, answers already filled in.
• NC(=O)CS(=O)(=O)c1cccc(Oc2ccc(Cl)c(-c3ncnc4c(C(F)(F)F)cccc34)c2)c1 = 6.15
• CNS(=O)(=O)c1cccc(Oc2ccc(Cl)c(-c3ncnc4c(Cl)cccc34)c2)c1 = 6.84

A = CC(C)(C)OC(=O)N1CC[C@@H](c2ccccc2)[C@H](c2cccc(-c3cccc(S(C)(=O)=O)c3)c2)C1 (relative stereo)
B = CCN(Cc1cscn1)c1ccc(C(O)(C(F)(F)F)C(F)(F)F)cc1Cl
C = Cc1nc2c(C(F)(F)F)cccn2c1-c1cccc(Oc2cccc(S(=O)(=O)CCC(C)(C)O)c2)c1
Order the records by pIC50, with each subsequent value no larger than the one before. Answer by listing the labels in the order asked for.
B, A, C
(B: 7.77, A: 6.80, C: 5.20)

* * *

Field IC50: reported value for UniProt Q13133; entries drawn from several documents.
MEASURED PROPERTY: IC50 (nM)

Below are worked cases with known answers.
* CS(=O)(=O)c1cc(F)cc(Oc2ccc(F)c(-c3ncnc4c(C(F)(F)F)cccc34)c2)c1 | 782
* CC(C)N1C(=O)N(S(=O)(=O)c2ccccc2)CC1c1cccc(-c2cncc(S(C)(=O)=O)c2)c1 (stereo not shown) | 2790
* Cc1cccc(-c2cccc([C@@H]3CN(C(=O)OC(C)(C)C)CC[C@H]3c3ccccc3)c2)c1 (relative stereo) | 53700

a = O=C(O)Cc1cccc2c(NCc3cncc(-c4c(Cc5ccccc5)cnc5c(C(F)(F)F)cccc45)c3)cccc12
b = CC(C)(C)OC(=O)N1C[C@H](c2cccc(-c3cccc(S(C)(=O)=O)c3)c2)[C@H](c2ccccc2)CC1=O (relative stereo)
c = CS(=O)(=O)c1cccc(COc2cccc(-c3ncnc4c(C(F)(F)F)cccc34)c2)c1
Place the items in sequence of falling IC50. Output spec: labels arranged per the requested ranking.
c, a, b
(c: 2830 nM, a: 964 nM, b: 240 nM)

* * *

This section presents pIC50 values reported for Oxysterols receptor LXR-alpha (Homo sapiens, UniProt Q13133) in the literature.
pIC50: −log10 of the molar value.
MEASURED PROPERTY: pIC50

I = C#CCC(C(=O)O)c1cccc2c(OCc3cccc(-c4ccnc5c(C(F)(F)F)cccc45)c3)cccc12 (stereo not shown)
II = CC(C)S(=O)(=O)c1cccc(Oc2ccc(F)c(-c3ncnc4c(Cl)cccc34)c2)c1
III = O=C(O)CCCCS(=O)(=O)c1cccc(Oc2ccc(F)c(-c3ncnc4c(C(F)(F)F)cccc34)c2)c1
IV = CC(C)N1C(=O)N(S(=O)(=O)c2ccccc2)CC1c1cccc(-c2cc(F)ccc2F)c1 (stereo not shown)
I'd appreciate it if you sorted the entries above by their pIC50, lowest to highest. Returns: the labels listed in the requested order.
III, I, IV, II
(III: 4.92, I: 5.71, IV: 6.02, II: 6.22)

I = Cc1nc(-c2cc(Oc3cccc(S(=O)(=O)CCCCC#N)c3)ccc2Cl)c2cccc(C(F)(F)F)c2n1
II = N#CCS(=O)(=O)c1cccc(Oc2ccc(Cl)c(-c3ncnc4c(C(F)(F)F)cccc34)c2)c1
Consider entries I and II . Which has the numerically lower pIC50? # respond with the chosen item's label
I

a = N#CCCCCS(=O)(=O)c1cccc(Oc2ccc(F)c(-c3ncnc4c(C(F)(F)F)cccc34)c2)c1
b = CCCN(Cc1ccc(-c2cccc(S(C)(=O)=O)c2)s1)S(=O)(=O)c1ccccc1C(F)(F)F
c = O=C(O)c1cccc(-c2cccc(-c3c(Cc4ccccc4)cnc4c(C(F)(F)F)cccc34)c2)c1
d = Cc1cnc2c(C(F)(F)F)cccc2c1-c1cccc(CNc2cccc3c(C(=O)O)cccc23)c1
e = Cc1ccc(C)c(-c2ccc(C3CN(S(=O)(=O)c4ccccc4)C(=O)N3c3ccccc3)cc2)c1 (stereo not shown)
# desc sort on pIC50 across 5 compounds Put the labels in the requested order and write them down.
d, a, c, b, e
(d: 6.43, a: 6.20, c: 5.88, b: 5.61, e: 4.99)

a = Cc1nc(-c2cccc(-c3cccc(S(C)(=O)=O)c3)c2)c2cccc(C(F)(F)F)c2n1
b = NC(=O)CCCS(=O)(=O)c1cccc(Oc2ccc(Cl)c(-c3ncnc4c(C(F)(F)F)cccc34)c2)c1
c = O=C(O)c1ccc(F)c(NCc2cccc(-c3c(Cc4ccccc4)cnc4c(C(F)(F)F)cccc34)c2)c1
Put the items in sequence by pIC50, from largest down. Labels, ranked as asked.
b, a, c
(b: 6.39, a: 6.15, c: 5.86)

* * *

Ok so here's the combined literature set: pIC50 for UniProtKB Q13133.
pIC50: −log10 of the molar value.
MEASURED PROPERTY: pIC50

- CC(C)S(=O)(=O)c1cccc(Oc2cccc(-c3c(C(C)(C)C)nc4c(C#N)cccn34)c2)c1: 6.28

I = CNS(=O)(=O)c1cccc(Oc2ccc(F)c(-c3ncnc4c(C(F)(F)F)cccc34)c2)c1
II = CC(C)N1C(=O)N(S(=O)(=O)c2ccccc2)CC1c1cccc(-c2ccc(CO)c(S(C)(=O)=O)c2)c1 (stereo not drawn)
III = CS(=O)(=O)c1cc(Oc2ccc(Cl)c(-c3ncnc4c(C(F)(F)F)cccc34)c2)ccc1C(N)=O
IV = COc1cccc2c(-c3cc(Oc4cccc(S(C)(=O)=O)c4)ccc3Cl)ncnc12
Rank descending by pIC50. Rank the items, then write their labels in that order.
II, I, III, IV

P = CS(=O)(=O)c1cccc(-c2ccc(CN(Cc3ccccc3)S(=O)(=O)c3ccccc3C(F)(F)F)s2)c1
Q = CS(=O)(=O)NCCCCS(=O)(=O)c1cccc(Oc2ccc(F)c(-c3ncnc4c(C(F)(F)F)cccc34)c2)c1
Would you kindly point out which of P and Q has the smaller pIC50 figure? Mark your selection by writing its label.
Q
(Q: 5.56, P: 6.69)

* * *

pIC50: −log10 of the molar value.
Consider the following pIC50 data for UniProtKB Q13133, collected from several reports.
MEASURED PROPERTY: pIC50

Please review the following examples before continuing.
- CS(=O)(=O)c1cccc(Oc2cccc(-c3ncnc4c(C(F)(F)F)cccc34)c2)c1: 5.74
- CS(=O)(=O)c1cccc(Oc2cccc(-c3c(Cc4ccccc4)nc4c(C(F)(F)F)ccnn34)c2)c1: 7.36
- CS(=O)(=O)c1cccc(Oc2ccc(-n3cnc4c(C(F)(F)F)cccc43)c(Cl)c2)c1: 5.59
- Cc1nc2c(Cl)cccc2n1-c1cccc(Oc2cc(F)cc(S(C)(=O)=O)c2)c1: 7.92
- Cc1nc2c(C(F)(F)F)cccc2nc1-c1cc(Oc2cccc(S(=O)(=O)CCCO)c2)ccc1Cl: 6.09

A = CCCS(=O)(=O)c1cccc(Oc2cccc(-c3c(CC)nc4c(C(F)(F)F)cccn34)c2)c1
B = NCCCS(=O)(=O)c1cccc(Oc2ccc(F)c(-c3ncnc4c(Cl)cccc34)c2)c1
Could you tell me which of A and B has the lower pIC50 reading? Kindly give the label for the entry you pick.
B
(B: 5.09, A: 6.01)

a = CS(=O)(=O)c1cccc(-c2ccc(CN(Cc3ccccc3)S(=O)(=O)c3ccccc3Cl)s2)c1
b = O=C(O)Cc1ccc(NCc2cccc(-c3c(Cc4ccccc4)cnc4c(C(F)(F)F)cccc34)c2)cc1Cl
Of a versus b , which is the one with smaller reported pIC50? Use the label to indicate which entry you chose.
a

I = CS(=O)(=O)Nc1cccc(-c2cccc(C3CN(S(=O)(=O)c4ccccc4)C(=O)N3c3ccccc3)c2)c1 (stereo not drawn)
II = O=C(O)c1cc2ccccc2cc1NCc1cccc(-c2c(Cc3ccccc3)cnc3c(C(F)(F)F)cccc23)c1
Task for the reader: decide whether I or II has the larger pIC50. Answer by stating the label of the chosen item.
I

I = Cc1cc(Oc2ccc(S(C)(=O)=O)cc2)ccc1-n1cnc2c(C(F)(F)F)cccc21
II = NCCCCS(=O)(=O)c1cccc(Oc2ccc(F)c(-c3ncnc4c(C(F)(F)F)cccc34)c2)c1
In the pair I and II , the larger recorded pIC50 belongs to which? Lab note: record the label of whichever item you select.
I

1 = COC(=O)c1ccc(OC(COc2ccc(C(O)(C(F)(F)F)C(F)(F)F)cc2)c2ccccc2)cc1 (racemic)
2 = CNCCCS(=O)(=O)c1cccc(Oc2cccc(-c3c(C(C)C)nc4c(C(F)(F)F)cccn34)c2)c1
Given 1 and given 2 , which shows the smaller recorded pIC50? # respond with the chosen item's label
2
(2: 5.55, 1: 7.03)
